Provide the reported Kinetic viscosity (cSt)40°C of each item.
Assay: Kinetic viscosity (E-type rotational viscometer, Cannon-Fenske viscometer)
Format: physicochemical
Settings: 40 °C
Returns: string containing the numeric result and its unit.

response.value for CC(C)(c1ccc(OC(F)F)cc1)c1ccc(OC(F)F)cc1 [[S7]] (field: Kinetic viscosity (cSt)40°C) = 4 cSt

Lab note: CC(C)(c1ccc(OC(F)(F)CF)cc1)c1ccc(OC(F)(F)CF)cc1 [[S9]] gave Kinetic viscosity (cSt)40°C of 50 cSt

The compound identified as CC(C)(c1ccc(OC(F)(F)C(F)Cl)cc1)c1ccc(OC(F)(F)C(F)Cl)cc1 (centres unmarked) [[S1]] registered its Kinetic viscosity (cSt)40°C at 56.8 cSt

So for CC(C)(c1ccc(OC(F)(F)C(F)F)cc1)c1ccc(OC(F)(F)C(F)F)cc1 [[S2]] , the logged Kinetic viscosity (cSt)40°C turned out to be 26.2 cSt

compound Cc1cc(C(C)(C)c2ccc(OC(F)(F)C(F)F)c(C)c2)ccc1OC(F)(F)C(F)F [[S5]] , Kinetic viscosity (cSt)40°C observed: 115 cSt
